Tested on: Mycobacterium avium
assay conditions: isolate MAV2
Description: Inhibition of multidrug resistance efflux pump in Mycobacterium avium isolate MAV2 assessed as potentiation of ofloxacin-induced antibacterial activity by measuring ofloxacin MIC at 1/4 MIC incubated for 3 days by MTT assay
readout type: MIC (µg/mL)
Unit µg/mL implied. Number only.

Read the entry CCCOc1ccc(-c2cn(CCN(CC)CC)c3ccccc3c2=O)cc1 and write its reported MIC.
2

Read the entry CSc1ccc2c(c1)N(CCC1CCCCN1C)c1ccccc1S2 (stereo not given) and write its reported MIC.
1

Read the entry CCCOc1ccc(-c2cn(CCN3CCCCCC3)c3ccccc3c2=O)cc1 and write its reported MIC.
2

Read the entry CCCOc1ccc(-c2cn(CCN3CCCCC3)c3ccccc3c2=O)cc1 and write its reported MIC.
4

Read the entry CN(C)CCCN1c2ccccc2Sc2ccc(Cl)cc21 and write its reported MIC.
2
